Data credit: the Human Domainome abundance scans (Beltran et al. 2025)

The following variants are shown together with reported abundance fitness values.
B1: Chromodomain-helicase-DNA-binding protein 4, residues 444 to 496; numbered along this chain, Q14839 (parent)
chain: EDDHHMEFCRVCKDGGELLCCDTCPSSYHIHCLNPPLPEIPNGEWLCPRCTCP

- Variants of: B1
- method_notes: abundance fitness (aPCA) (normalised: wild type 0, dead -1); higher = more abundant; growth selection in yeast, the domain comes from the species named
- run_conditions: Homo sapiens

Answered cases to consult:
{"variant_id": "P38M", "readout_value": -0.082}
{"variant_id": "P38V", "readout_value": -0.113}
{"variant_id": "P41C", "readout_value": -0.135}
{"variant_id": "W45N", "readout_value": -0.428}

GET /values?readout=abundance fitness&item= "R10E"
-0.07

Please answer likewise for "E1N"
0.354

Query "V11L" next
-0.214

Would you mind doing "E17S" as well?
-0.184

Queued: "N42R"
-0.022
